Reference for the values: the supplement of paper PMC10724198

Give protein stability index for every item shown.
Tested on: Saccharomyces cerevisiae
Assay: protein stability index of tFT-peptide fusion (C-terminal peptide) (PSI (0-1 scale)); higher = more stable (slower turnover)
Conditions: genetic background: wild type; temperature: 30 C
Numbers only.

PPPPLPPLPGTL    0.657
PPAGCSPSPRSP    0.66
SVLAIWLTVTLK    0.145
LGGCGWVDWWGL    0.732
PPSSYGCGRQMP    0.645

Batch of 2 sequences: report protein stability index for each.
1. CDHLSLCDDLFA
2. PPPPSPPLTRSL

[reply]
1. 0.753
2. 0.783

Batch of 4 sequences: report protein stability index for each.
1. VPAGDPPGAWKA
2. GGGARWGWGGRM
3. LLLRSSPVSLSR
4. VRIGCSLLFFLP

[reply]
1: 0.746; 2: 0.648; 3: 0.716; 4: 0.532

Batch of 8 sequences: report protein stability index for each.
1. PSPSPPPPLSPP
2. LPLFTIVPPFFF
3. LPRAGLVLSPLH
4. LSPFPSCLPPSV
5. DPHINARERTPL
6. SWYAGGRRWIVV
7. DVVDGCGGRYGW
8. RRESQRRYRRML

[reply]
1: 0.698; 2: 0.59; 3: 0.661; 4: 0.702; 5: 0.814; 6: 0.608; 7: 0.687; 8: 0.714

###

System: Saccharomyces cerevisiae
Assay: protein stability index of tFT-peptide fusion (C-terminal peptide) (PSI (0-1 scale)); higher = more stable (slower turnover)
Details: genetic background: wild type; temperature: 30 C
readoutLabel: protein stability index

Before answering, review these 5 worked examples.
DEELHPLSDEGM [DPP1 C-terminal 12 aa]    0.726
TTDNVTVMVVFL [PTC1 C-terminal 12 aa]    0.507
TVHQLRDRGFDI [ENV9 C-terminal 12 aa]    0.717
AQLLAYLMHKSN [LPL1 C-terminal 12 aa]    0.252
YFLAERERINNH [PEX4 C-terminal 12 aa]    0.694

Batch of 8 sequences: report protein stability index for each.
1. GLLVVFDRIDVK [MET7 C-terminal 12 aa]
2. GNTGSGGYDNAW [RPB3 C-terminal 12 aa]
3. ERKPLDFLRTAK [MRPL39 C-terminal 12 aa]
4. VTSKSALESIFP [YGP1 C-terminal 12 aa]
5. RYFCHLFRCSII [YDL022C-A C-terminal 12 aa]
6. LITTRTVHRSLD [YEL076C-A C-terminal 12 aa]
7. ASREREKRRQSE [VAN1 C-terminal 12 aa]
8. SRQFEQNLQIND [SLF1 C-terminal 12 aa]

[reply]
1. 0.634
2. 0.723
3. 0.659
4. 0.678
5. 0.654
6. 0.657
7. 0.764
8. 0.676

###

Give protein stability index for every item shown.
System: Saccharomyces cerevisiae
Assay: protein stability index of tFT-peptide fusion (C-terminal peptide) (PSI (0-1 scale)); higher = more stable (slower turnover)
Conditions: genetic background: wild type; temperature: 30 C
One number for each entry.

KSEKQKSNRKEF    0.686
LRRAFPSSTPLK    0.698
GGRGRRWAGPRC    0.702

Batch of 4 sequences: report protein stability index for each.
1. PPPTPKITPMSI
2. YCWGYVVARPSV
3. GILVALGSPLLV
4. PLPPPPVSLPAP

[reply]
1. 0.687
2. 0.695
3. 0.592
4. 0.617

Batch of 2 sequences: report protein stability index for each.
1. SPPSLLATVYFF
2. PSRRHGFRLILT

[reply]
1. 0.706
2. 0.679
